target: RSV prefusion F (preF, DS-Cav1) (Respiratory syncytial virus); assay: BLI, IgG on sensor, 100 nM antigen
Exercise: for every item that follows, state its recorded pKd.
Give bare numbers, as −log10 of the molar value.

Known pKd results, listed for orientation:
BINDER	pKd
ADI-41237 (antibody, V domains shown) VH: EVQLVESGGGLVKPGGSLRLSCAASGFTFSDYYMNWIRQAPGKGLEWVSDISPSSSYTNYADSVKGRFTISRDNAKNSLYLQMNSLRAEDTAMYYCARRGSCTGGVCSFDYWGQGTLVTVSS VL: QPGLTQPPSVSGAPGQRVTISCTGSSSNIGAGYDVNWYQQLPGTAPKLLIYDNSNRPSGVPDRFSGSKSGTSASLAITGLQAEDEADFYCQSYDSSLSGFVFGTGTKVTVL	9.10
ADI-41349 (antibody, V domains shown) VH: EVQLLESGGGLVQPGRSLRLSCTGSGFTFGDYAMNWVRQAPGKGLEWVGLIRSKDYGGTTEFAASLKGRLTISRDDSKSIAYLQMHSLKTEDSAVYYCTRAHLTDYTDINGYQYYFDYWGQGSPVTVSS VL: DIQMTQSPSSLSASVGDRVTITCQASQDISNFLNWYQQRPGKAPKLLIHDASNLETGVPSRFSGSGSRTEFTFTISSLQPEDIGTYYCQHYDNFPYTFGQGTKVEIK	8.20

The record that follows has no pKd shown yet.
Any idea what its pKd is? The binder is ADI-41263 (antibody, V domains shown) VH: QVQLVQSGAEVKKPGASVKVYCKASGYTFTSHYIHWVRQAPGQGLEWMGRMNPSGGSPMYAQKFQERVTMTRDTSTSTAYMELRSLRSEDTAVYYCAMAKFYSFDYWGQGTLVTVSS VL: QSVLTQPHSVSESPGKTVTISCTRSSGSIASYFVHWYQQRPGSAPTIVIYEDNQRPSGVPDRFSGSIDSSSNSASLTISGLKTEDEADYYCQSYDSSNWVFGGGTKLTVL
8.54
